Biological target: human NHE3 (Homo sapiens)
Construct: expressed in transfected cells; host or cells: OK26 cells (opossum kidney OK cells); OK26 ND sublines with opNHE1 reduced by 90% for A3
Sequence (P48764 26-834): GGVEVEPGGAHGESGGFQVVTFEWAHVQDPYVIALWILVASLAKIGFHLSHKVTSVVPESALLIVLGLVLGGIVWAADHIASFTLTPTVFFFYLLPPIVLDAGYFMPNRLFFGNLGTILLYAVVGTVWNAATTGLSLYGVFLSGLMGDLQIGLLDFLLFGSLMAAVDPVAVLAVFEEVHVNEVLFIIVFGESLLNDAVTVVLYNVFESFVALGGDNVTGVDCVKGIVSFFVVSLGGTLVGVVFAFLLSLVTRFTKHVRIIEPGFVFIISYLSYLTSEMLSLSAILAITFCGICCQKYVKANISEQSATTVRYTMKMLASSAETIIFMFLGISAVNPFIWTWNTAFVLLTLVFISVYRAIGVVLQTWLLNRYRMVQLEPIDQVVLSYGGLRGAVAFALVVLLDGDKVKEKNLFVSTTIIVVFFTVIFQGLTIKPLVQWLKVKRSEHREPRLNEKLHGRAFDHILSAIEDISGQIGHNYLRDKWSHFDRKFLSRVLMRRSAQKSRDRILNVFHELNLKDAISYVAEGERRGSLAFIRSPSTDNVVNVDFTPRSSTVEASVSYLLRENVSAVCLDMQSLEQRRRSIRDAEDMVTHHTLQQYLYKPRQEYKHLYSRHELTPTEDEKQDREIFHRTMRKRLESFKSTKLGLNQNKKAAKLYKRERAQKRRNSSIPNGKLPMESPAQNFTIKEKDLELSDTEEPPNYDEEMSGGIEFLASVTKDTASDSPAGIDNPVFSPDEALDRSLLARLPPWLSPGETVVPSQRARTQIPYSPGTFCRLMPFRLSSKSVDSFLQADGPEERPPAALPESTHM
Experiment: Improved version of measurements of NHE3 inhibitory activities (OK26 ND cell lines)
Format: cell-based
Conditions: OK26 ND cell lines (opNHE1 expression reduced by 90%), measurement time 8 minutes at 26° C.; read-out: hNHE3 IC50
Record form. Attribute: IC50. Fill in for each entry.
One number for each entry, in nM.

Some compounds with recorded IC50:
[
  {
    "SMILES CODE": "COc1cc(-c2ccc(/C=C(\\C)C(=O)NC(=N)N)c(-c3ccc(O)c(OC)c3)c2)ccc1O",
    "REPORTED PROPERTY": "IC50",
    "ENDPOINT VALUE": 150
  },
  {
    "SMILES CODE": "C/C(=C\\c1ccccc1-c1ccc(C(=N)N)cc1)C(=O)NC(=N)N",
    "REPORTED PROPERTY": "IC50",
    "ENDPOINT VALUE": 400
  },
  {
    "SMILES CODE": "C/C(=C\\c1ccc(Oc2ccc(O)cc2)cc1-c1ccc(O)cc1)C(=O)NC(=N)N",
    "REPORTED PROPERTY": "IC50",
    "ENDPOINT VALUE": 130
  },
  {
    "SMILES CODE": "C/C(=C\\c1ccccc1-c1cscc1C)C(=O)NC(=N)N",
    "REPORTED PROPERTY": "IC50",
    "ENDPOINT VALUE": 540
  },
  {
    "SMILES CODE": "C/C(=C\\c1ccccc1-c1cccc(O)c1)C(=O)NC(=N)N",
    "REPORTED PROPERTY": "IC50",
    "ENDPOINT VALUE": 110
  },
  {
    "SMILES CODE": "C/C(=C\\c1ccc(C)cc1-c1ccc(F)c(O)c1)C(=O)NC(=N)N",
    "REPORTED PROPERTY": "IC50",
    "ENDPOINT VALUE": 330
  }
]

## Task For the compound shown here, COc1cc(-c2ccccc2/C=C(\C)C(=O)NC(=N)N)ccc1O , give the reported IC50.
## Result 610
